- assay info: Oral bioavailability in rat
- Format: ADME, organism-based
- condition context: in vivo
Label rule met for high-side bioavailability (at or above 40%) and rule not met for low-side bioavailability (below it).

Solved cases (4 shown):
> print(dat)
                                   compound  class.assignment
1  CCCCN(CCCC)C(=O)CN1C[C@H](c2ccc3c(c2)OCO3)[C@@H](C(=O)O)[C@@H]1c1ccc(OC)cc1          rule met
2  CCCN(CCN1C[C@H](c2ccc3c(c2)OCO3)[C@@H](C(=O)O)[C@@H]1c1ccc(OC)c(F)c1)S(=O)(=O)CCCC(F)(F)F (stereo in doubt; 15e)      rule not met
3  COc1ccccc1Oc1c(NS(=O)(=O)c2ccc(C(C)(C)C)cc2)nc(-c2ncccn2)nc1OCCO      rule not met
4  CCCCS(=O)(=O)N(CCC)CCN1C[C@H](c2ccc3c(c2)OCO3)[C@@H](C(=O)O)[C@@H]1c1ccc(OC)c(F)c1 (stereo in doubt; 15a)      rule not met

Consider now this further compound.
Test whether the compound CCCCCS(=O)(=O)N(CCC)CCN1C[C@H](c2ccc3c(c2)OCO3)[C@@H](C(=O)O)[C@@H]1c1ccc(OC)c(F)c1 (stereo in doubt; 15b) records bioavailability of 40% or higher. rule met

====

Below, each entry is listed alongside its reported Ratio.
- assay info: Ratio of endothelin A receptor and endothelin B receptor.
Square brackets hold non-standard residues; d marks the D form. Peptide text beside a SMILES is read from it. * marks the point of attachment. Piperazinyl(4-Ph) = c1ccc(N2CCN(*)CC2)cc1; dGly(2-thienyl) = N[C@@H](C(=O)O)c1cccs1
API doc: respond with a numeric literal and nothing else, no unit.

compound	Ratio
CC(C)C[C@@H]1NC(=O)[C@@H](c2cccs2)NC(=O)[C@H](CC(=O)O)NC(=O)[C@H](CC(=O)N2CCN(c3ccccc3)CC2)NC(=O)[C@@H](CC(=O)O)NC(=O)[C@@H](Cc2c[nH]c3ccccc23)NC1=O (cyclo(D(Piperazinyl(4-Ph))D[dGly(2-thienyl)]L[dW][dD]))	540
CCCCCS(=O)(=O)N(CCC)CCN1C[C@H](c2ccc3c(c2)OCO3)[C@@H](C(=O)O)[C@@H]1c1ccc(F)c(F)c1	3.8

So for CCCCCCCS(=O)(=O)N(CCC)CCN1C[C@H](c2ccc3c(c2)OCO3)[C@@H](C(=O)O)[C@@H]1c1ccc(OC)cc1 , the logged Ratio turned out to be 11

====

- study system: Endothelin-1 receptor (Rattus norvegicus, UniProt P26684)
- Sequence (P26684 whole entry): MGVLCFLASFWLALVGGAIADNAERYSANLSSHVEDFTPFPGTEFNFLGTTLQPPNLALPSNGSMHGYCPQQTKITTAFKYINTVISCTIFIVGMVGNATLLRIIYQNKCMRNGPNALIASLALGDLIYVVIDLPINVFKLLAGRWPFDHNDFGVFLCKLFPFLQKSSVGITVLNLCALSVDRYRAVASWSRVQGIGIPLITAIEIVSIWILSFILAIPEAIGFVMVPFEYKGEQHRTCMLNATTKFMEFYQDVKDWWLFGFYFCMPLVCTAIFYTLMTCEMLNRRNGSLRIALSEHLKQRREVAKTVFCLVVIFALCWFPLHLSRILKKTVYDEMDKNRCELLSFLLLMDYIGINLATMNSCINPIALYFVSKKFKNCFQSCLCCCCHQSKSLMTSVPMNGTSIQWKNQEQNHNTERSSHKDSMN
- assay info: Ability to displace endothelin ([125I]ET1) from endothelin A receptor derived from MMQ cells of rodent.
pIC50: −log10 of the molar value.
Label condition met for high-side pIC50 (at or above 9) and condition not met for low-side pIC50 (below it).

> print(dat)
                                   molecule                              study.system   class.assignment
1  CCCN(CCN1C[C@H](c2ccc3c(c2)OCO3)[C@@H](C(=O)O)[C@@H]1c1ccc(OC)c(F)c1)S(=O)(=O)CCCCl (stereo in doubt; 14e)  Endothelin-1 receptor (Rattus norvegicus, UniProt P26684)      condition met
2  CCCCCS(=O)(=O)N(CCC)CCN1C[C@H](c2ccc3c(c2)OCO3)[C@@H](C(=O)O)[C@@H]1c1ccc(F)c(F)c1  Endothelin-1 receptor (Rattus norvegicus, UniProt P26684)  condition not met

Test whether the molecule CCCN(CCN1C[C@H](c2ccc3c(c2)OCO3)[C@@H](C(=O)O)[C@@H]1c1ccc(OC)cc1)S(=O)(=O)c1ccc(C)cc1 records pIC50 of 9 or higher. condition not met

Test whether the molecule CCCCN(CCN1C[C@H](c2ccc3c(c2)OCO3)[C@@H](C(=O)O)[C@@H]1c1ccc(OC)cc1)S(=O)(=O)CCC records pIC50 of 9 or higher. condition not met

Test whether the molecule CCCCCS(=O)(=O)N(CCC)CCN1C[C@H](c2ccc3c(c2)OCO3)[C@@H](C(=O)O)[C@@H]1c1ccc(OC)c(OC)c1 records pIC50 of 9 or higher. condition not met

Test whether the molecule CCCCN(CCN1C[C@H](c2ccc3c(c2)OCO3)[C@@H](C(=O)O)[C@@H]1c1ccc(OC)cc1)C(=O)CCC records pIC50 of 9 or higher. condition not met

Test whether the molecule CCCCCCCS(=O)(=O)N(CCC)CCN1C[C@H](c2ccc3c(c2)OCO3)[C@@H](C(=O)O)[C@@H]1c1ccc(OC)cc1 records pIC50 of 9 or higher. condition not met

Test whether the molecule CCCS(=O)(=O)N(C)CCN1C[C@H](c2ccc3c(c2)OCO3)[C@@H](C(=O)O)[C@@H]1c1ccc(OC)cc1 records pIC50 of 9 or higher. condition not met

Test whether the molecule CCCN(CCN1C[C@H](c2ccc3c(c2)OCO3)[C@@H](C(=O)O)[C@@H]1c1ccc(OC)cc1)S(=O)(=O)CCOC records pIC50 of 9 or higher. condition not met

Test whether the molecule CCCCCCS(=O)(=O)N(CCC)CCN1C[C@H](c2ccc3c(c2)OCO3)[C@@H](C(=O)O)[C@@H]1c1ccc(OC)cc1 records pIC50 of 9 or higher. condition met
